tested on: barnyardgrass (Echinochloa crus-galli); test: Test A pre-/postemergence: barnyardgrass; type: in vivo; details: Postemergence, 500 g ai/ha; 0 to 100 scale, 0 is no effect, 100 is complete control
Reported Barnyardgrass plant response rating values for a set of compounds
Hey, just send me the number, nothing else.

// known answers, use as guide
CCCCc1nn(-c2ccc(C(F)(F)F)cc2)nc1Oc1ccnc(C(F)(F)F)c1	30
CCOCc1nn(-c2ccc(F)cc2)nc1Oc1ccnc(C(F)(F)F)c1	100
CCc1nn(-c2ccc(C(F)(F)F)cc2)nc1Oc1ccnc(C(F)(F)F)c1	90

From here, focus on the item given below.
The measured Barnyardgrass plant response rating associated with CC(C)Oc1nn(-c2ccc(C(F)(F)F)cc2)nc1Cc1ccnc(C(F)(F)F)c1 reads 20
